Experiment: blockers of measles virus-induced cell death – single point, MLSMR library, absorbance, measles RdRp inhibitor project, primary screen (AID 841)
Conditions: Measles virus-infected cells, CPE protection, at 4 µM, stronger effect = higher value
About 2,100 (1.5%) of roughly 140,000 compounds were called active. Many of the other results were omitted from the sample, so actives are more common in it than they were.
Measured protection (pct of control) values are reported for all entries that follow.
Numbers only; they are read as %.

{"columns": ["compound", "units", "protection (pct of control)"],
 "data": [
  ["COc1cc2c(cc1/C=C1/NC(=O)N(c3ccccc3)C1=O)OCO2", "%", 22.7],
  ["C/C(=N\\NC(=O)Cc1ccc(F)cc1)c1ccc(F)cc1", "%", 16.1]
]}

// sample `O=C(NC(=S)Nc1cc(C(F)(F)F)ccc1N1CCOCC1)c1ccc(-c2cccc(Cl)c2)o1` , its protection (pct of control) was 1.76

// sample `CCC(=O)Nc1cccc(NC(=O)c2cccnc2)c1` , its protection (pct of control) was 5.87

// sample `COc1cc(C)c(C(C)C)cc1S(=O)(=O)n1ccnc1` , its protection (pct of control) was 24.3

// sample `Cc1cccc(Nc2nc3c(S(=O)(=O)c4ccccc4)nnn3c3ccccc23)c1C` , its protection (pct of control) was 4.8

// sample `CCOC(=O)N1CCN(CC(=O)c2c(C)[nH]c3ccccc23)CC1` , its protection (pct of control) was 5.34

// sample `COc1ccc(Cl)cc1C(=O)NCc1cn(C)nc1C` , its protection (pct of control) was 42.3

// sample Cc1cc(C)c(NC(=O)CS(=O)CC(=O)Nc2cccnc2)c(C)c1 (configuration not stated) , its protection (pct of control) was 56.7

// sample `CNC(=S)N/N=C/c1ccc(OCc2ccccc2)c(Br)c1` , its protection (pct of control) was 4.55

// sample CCC(=O)N1c2ccc(S(=O)(=O)CCC(=O)N3CCN(c4ccccc4)CC3)cc2CC1C (configuration not stated) , its protection (pct of control) was 8.07

// sample `Cc1cc(C)c(S(=O)(=O)N2C=CC(C(F)(F)F)=NCC2)c(C)c1` , its protection (pct of control) was 30.8
